The reported measurements were obtained from the supplement of paper PMC11219838.

In this section we review reported survival and reproduction score values for a set of compounds.
System: Caenorhabditis elegans L1 (N2)
Assay: survival and reproduction score of C. elegans L1 (0: 0-10 living worms, 1: 11-20, 2: 21-50, 3: >50, 4: overgrown) (score 0-4); higher = more worms, less nematicidal, active = 1 or less; extreme values may be limits of the assay
Details: 60 µM; 6 days; temperature: 20 °C
Keep it simple and answer with nothing but the number.

I have this compound here, `Clc1ccccc1-c1noc(COc2ccc(Br)cc2)n1` , and I need its recorded survival and reproduction score.
4

I have this compound here, `CCCc1ccc(-c2nc(-c3cccnc3)no2)cc1` , and I need its recorded survival and reproduction score.
0

I have this compound here, `COc1ccc(-c2noc(COc3ccccc3)n2)cc1` , and I need its recorded survival and reproduction score.
0

I have this compound here, `COc1ccc(-c2noc(-c3ccccc3Br)n2)cc1` , and I need its recorded survival and reproduction score.
4

I have this compound here, `CCC(=O)Nc1ccccc1-c1nc(-c2cccnc2)no1` , and I need its recorded survival and reproduction score.
4

I have this compound here, `O=C(CSc1nnc(-c2cccc(Cl)c2)o1)Nc1nccs1` , and I need its recorded survival and reproduction score.
4

I have this compound here, `Cc1ccccc1-c1nnc(SCC(=O)Nc2cc(C(F)(F)F)ccc2N2CCOCC2)o1` , and I need its recorded survival and reproduction score.
4

I have this compound here, `CC(C)(C)NC(=O)CSc1nnc(-c2ccc(C(C)(C)C)cc2)o1` , and I need its recorded survival and reproduction score.
4

I have this compound here, `Cc1ccccc1-c1noc(COc2ccccc2)n1` , and I need its recorded survival and reproduction score.
4

I have this compound here, `Brc1ccc(-c2nc(-c3cccnc3)no2)cc1` , and I need its recorded survival and reproduction score.
0

I have this compound here, `CCOc1cc(-c2nc(-c3ccccc3OC)no2)cc(OCC)c1OCC` , and I need its recorded survival and reproduction score.
4

I have this compound here, `CCN(CC)C(=O)CSc1nnc(-c2cccc(Cl)c2)o1` , and I need its recorded survival and reproduction score.
4

I have this compound here, `Fc1ccc(-c2noc(COc3ccccc3Cl)n2)cc1` , and I need its recorded survival and reproduction score.
4

I have this compound here, `Cc1ccc(-c2noc(-c3ccccc3OCC(N)=O)n2)cc1` , and I need its recorded survival and reproduction score.
4

I have this compound here, `Cc1ccc(OCc2nc(-c3ccncc3)no2)c(Br)c1` , and I need its recorded survival and reproduction score.
3.5

I have this compound here, `c1ccc(CSc2nnc(-c3cccnc3)o2)cc1` , and I need its recorded survival and reproduction score.
4

I have this compound here, `Clc1ccccc1OCc1nc(-c2ccc(Br)cc2)no1` , and I need its recorded survival and reproduction score.
4

I have this compound here, `Cc1ccc(-c2noc(-c3ccco3)n2)s1` , and I need its recorded survival and reproduction score.
0
